Record type: IC50 measurement. Applies to: Cyclin-dependent kinase 2 (Homo sapiens, UniProt P24941)
experimental-readout: IC50 (nM)

I = COCCOCC(=O)NS(=O)(=O)c1ccc(Nc2nc(N)n(C(=O)c3c(F)cccc3F)n2)cc1
II = CCOC(=O)CCC(=O)NS(=O)(=O)c1ccc(Nc2nc(N)n(C(=O)c3c(F)cccc3F)n2)cc1
Ask | // select label with min value of measured IC50 from [ I , II ] Reply with the label of the item you choose.
Reply | II
(II: 62 nM, I: 247 nM)

----------
assayed-system: UniProt:P06493
Sequence (P06493 whole entry): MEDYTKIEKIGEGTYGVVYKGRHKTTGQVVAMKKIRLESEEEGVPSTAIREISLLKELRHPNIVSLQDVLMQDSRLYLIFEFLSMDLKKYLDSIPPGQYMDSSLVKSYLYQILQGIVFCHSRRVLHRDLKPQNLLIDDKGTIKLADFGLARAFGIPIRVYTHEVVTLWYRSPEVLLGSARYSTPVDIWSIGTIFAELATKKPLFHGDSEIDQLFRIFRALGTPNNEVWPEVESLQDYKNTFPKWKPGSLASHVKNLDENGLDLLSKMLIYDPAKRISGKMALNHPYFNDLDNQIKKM
experimental-readout: IC50 (nM)
Number in nM, nothing else.

Ask | I'm curious: which IC50 was measured for "Nc1nc(Nc2ccc(S(=O)(=O)NC(=O)[C@H](N)CO)cc2)nn1C(=O)c1c(F)cccc1F" tested on UniProt:P06493?
Reply | 1410

----------
Test system: A-375
assay-remarks: Antiproliferative activity against human A375 cells
Format: functional, cell-based
pIC50: −log10 of the molar value.
experimental-readout: pIC50

Field: example entries. Status: answers known.
| compound | pIC50 |
| --- | --- |
| Nc1nc(Nc2ccc(S(N)(=O)=O)cc2)nn1C(=O)c1c(F)cccc1F [JNJ-7706621] | 6.35 |
| NCC(=O)NS(=O)(=O)c1ccc(Nc2nc(N)n(C(=O)c3c(F)cccc3F)n2)cc1 | 5.02 |
| COCCOCC(=O)NS(=O)(=O)c1ccc(Nc2nc(N)n(C(=O)c3c(F)cccc3F)n2)cc1 | < 4.00 |
| Nc1nc(Nc2ccc(S(=O)(=O)NC(=O)CCC(=O)O)cc2)nn1C(=O)c1c(F)cccc1F | 4.69 |
| Nc1nc(Nc2ccc(S(=O)(=O)NC(=O)CCN3CCOCC3)cc2)nn1C(=O)c1c(F)cccc1F | < 4.00 |

Ask | For the compound "CN1CCN(CCC(=O)NS(=O)(=O)c2ccc(Nc3nc(N)n(C(=O)c4c(F)cccc4F)n3)cc2)CC1" , what pIC50 is on record?
Reply | < 4.00

Ask | For the compound "Nc1nc(Nc2ccc(S(=O)(=O)NC(=O)[C@H](N)CO)cc2)nn1C(=O)c1c(F)cccc1F" , what pIC50 is on record?
Reply | < 5.00

Ask | For the compound "CCOC(=O)CCC(=O)NS(=O)(=O)c1ccc(Nc2nc(N)n(C(=O)c3c(F)cccc3F)n2)cc1" , what pIC50 is on record?
Reply | < 5.00

----------
Test system: HCT-116
assay-remarks: Antiproliferative activity against human HCT116 cells
Assay type: functional, cell-based
pIC50: −log10 of the molar value.
experimental-readout: pIC50

| structure-as-smiles | val |
| --- | --- |
| NCC(=O)NS(=O)(=O)c1ccc(Nc2nc(N)n(C(=O)c3c(F)cccc3F)n2)cc1 | 4.43 |

1 = Nc1nc(Nc2ccc(S(=O)(=O)NC(=O)CCN3CCOCC3)cc2)nn1C(=O)c1c(F)cccc1F
2 = Nc1nc(Nc2ccc(S(N)(=O)=O)cc2)nn1C(=O)c1c(F)cccc1F
Ask | // select label with min value of measured pIC50 from [ 1 , 2 ] Reply with the label of the item you choose.
Reply | 1

----------
assay-remarks: AUC in rat at 3 mg/kg, iv
Format: ADME, organism-based
Design: dose 3 mg/kg, route intravenous
experimental-parameters: plasma
experimental-readout: AUC (µM·h)

Field: example entries. Status: answers known.
| structure-as-smiles | AUC (µM·h) |
| --- | --- |
| Nc1nc(Nc2ccc(S(=O)(=O)NC(=O)[C@H](N)CO)cc2)nn1C(=O)c1c(F)cccc1F | 8.15 |
| Nc1nc(Nc2ccc(S(=O)(=O)NC(=O)CCC(=O)O)cc2)nn1C(=O)c1c(F)cccc1F | 47 |

P = CN1CCN(CCC(=O)NS(=O)(=O)c2ccc(Nc3nc(N)n(C(=O)c4c(F)cccc4F)n3)cc2)CC1
Q = COCCOCC(=O)NS(=O)(=O)c1ccc(Nc2nc(N)n(C(=O)c3c(F)cccc3F)n2)cc1
Ask | // select label with min value of measured AUC from [ P , Q ] Reply with the label of the item you choose.
Reply | P
(P: 23.2 µM·h, Q: 42.9 µM·h)

I = Nc1nc(Nc2ccc(S(=O)(=O)NC(=O)CCN3CCOCC3)cc2)nn1C(=O)c1c(F)cccc1F
II = CCOC(=O)CCC(=O)NS(=O)(=O)c1ccc(Nc2nc(N)n(C(=O)c3c(F)cccc3F)n2)cc1
III = NCC(=O)NS(=O)(=O)c1ccc(Nc2nc(N)n(C(=O)c3c(F)cccc3F)n2)cc1
Ask | Endpoint returns the given molecules ordered by ascending AUC. To answer, arrange all of the labels according to the requested order.
Reply | III, I, II
(III: 11.8 µM·h, I: 20.5 µM·h, II: 72.2 µM·h)
